Molecular target: PDE4B1 (Homo sapiens, UniProt Q07343)
Construct: made in house; host or cells: SF21 insect cells (baculovirus; pCRBac vector), 1000 x g supernatant of homogenate
Sequence (Q07343 whole entry): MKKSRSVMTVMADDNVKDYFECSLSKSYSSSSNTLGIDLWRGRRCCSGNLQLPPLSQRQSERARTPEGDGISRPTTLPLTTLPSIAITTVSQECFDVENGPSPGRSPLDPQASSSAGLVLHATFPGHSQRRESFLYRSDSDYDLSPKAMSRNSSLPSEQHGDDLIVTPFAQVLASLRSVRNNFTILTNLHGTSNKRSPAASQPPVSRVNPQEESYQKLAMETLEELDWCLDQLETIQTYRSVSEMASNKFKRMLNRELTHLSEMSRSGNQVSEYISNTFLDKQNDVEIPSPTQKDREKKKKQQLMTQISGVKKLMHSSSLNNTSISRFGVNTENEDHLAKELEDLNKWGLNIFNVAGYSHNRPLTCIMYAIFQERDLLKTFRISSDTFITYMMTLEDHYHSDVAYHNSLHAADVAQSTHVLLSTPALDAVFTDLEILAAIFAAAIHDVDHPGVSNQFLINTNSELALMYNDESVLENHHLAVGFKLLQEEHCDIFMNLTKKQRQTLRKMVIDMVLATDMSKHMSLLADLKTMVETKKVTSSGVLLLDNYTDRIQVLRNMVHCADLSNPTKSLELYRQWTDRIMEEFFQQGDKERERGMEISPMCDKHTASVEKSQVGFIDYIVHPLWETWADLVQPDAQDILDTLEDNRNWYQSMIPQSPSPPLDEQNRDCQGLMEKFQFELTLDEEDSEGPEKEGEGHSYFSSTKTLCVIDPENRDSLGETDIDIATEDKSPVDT
Assay: Inhibition of type 4 phosphodiesterase (PDE4) activity, modified SPA test with recombinant PDE4B1 expressed in SF21 insect cells
Format: biochemical
Details: recombinant PDE4B1, 0.5 μM cAMP, read-out: PDE4B1 inhibitory values [measured as −log IC50 (mol/l)] (converted)
value kind: IC50

I am curious: what IC50 value has been reported for CCC(=O)N1C[C@@H](O)[C@H](NC(=O)c2c(C)[nH]c3c(-c4cc(CC)ccc4OCC4CC4)ncnc23)C1 (relative stereo) ? 100 to 1000 nM

I am curious: what IC50 value has been reported for COCC(=O)N[C@H]1CC[C@@H](NC(=O)c2c(C)[nH]c3c(-c4cc(C(F)(F)F)ccc4OCC4CC4)ncnc23)CC1 ? < 100 nM

I am curious: what IC50 value has been reported for CCc1ccc(OCC2CC2)c(-c2ncnc3c(C(=O)N[C@@H]4CN(C(=O)COC)C[C@H]4O)c(C)[nH]c23)c1 (relative stereo) ? 100 to 1000 nM

I am curious: what IC50 value has been reported for CCC(=O)N[C@H]1CC[C@H](NC(=O)c2c(C)[nH]c3c(-c4cc(C)ccc4OCC4CC4)ncnc23)CC1 ? < 100 nM

I am curious: what IC50 value has been reported for CCC(=O)N1CCC(NC(=O)c2c(C)[nH]c3c(-c4cc(C)ccc4OCC4CC4)ncnc23)CC1 ? < 100 nM

I am curious: what IC50 value has been reported for COCC(=O)N[C@H]1CC[C@H](NC(=O)c2c(C)[nH]c3c(-c4cc(OC)ccc4OCC4CC4)ncnc23)CC1 ? 100 to 1000 nM

I am curious: what IC50 value has been reported for Cc1[nH]c2c(-c3cc(C(C)C)ccc3OCC3CC3)ncnc2c1C(=O)N[C@H]1CC[C@H](NC(=O)[C@H](C)O)CC1 ? 100 to 1000 nM

I am curious: what IC50 value has been reported for CCC(=O)N[C@H]1CC[C@@H](NC(=O)c2c(C)[nH]c3c(-c4cc(C)ccc4OCC4CC4)ncnc23)CC1 ? < 100 nM

I am curious: what IC50 value has been reported for CCc1ccc(OCC2CC2)c(-c2ncnc3c(C(=O)NC4CCC(NC(=O)C(C)O)CC4)c(C)[nH]c23)c1 (centres unmarked) ? < 100 nM

I am curious: what IC50 value has been reported for Cc1ccc(OCC2CC2)c(-c2ncnc3c(C(=O)N[C@H]4CC[C@@H](NC(=O)[C@H](C)O)CC4)c(C)[nH]c23)c1 ? < 100 nM

I am curious: what IC50 value has been reported for Cc1ccc(OCC2CC2)c(-c2ncnc3c(C(=O)NC4CCN(C(=O)[C@H](C)O)CC4)c(C)[nH]c23)c1 ? < 100 nM

I am curious: what IC50 value has been reported for CC(=O)N[C@H]1CC[C@H](NC(=O)c2c(C)[nH]c3c(-c4cc(F)ccc4OCC4CC4)ncnc23)CC1 ? < 100 nM

I am curious: what IC50 value has been reported for Cc1ccc(OCC2CC2)c(-c2ncnc3c(C(=O)NC4CCN(C(=O)CO)CC4)c(C)[nH]c23)c1 ? < 100 nM

I am curious: what IC50 value has been reported for CC(=O)N[C@H]1CC[C@H](NC(=O)c2c(C)[nH]c3c(-c4cc(C(F)F)ccc4OCC4CC4)ncnc23)[C@@H](C)C1 (relative stereo) ? < 100 nM

I am curious: what IC50 value has been reported for CC(=O)N[C@H]1CC[C@H](NC(=O)c2c(C)[nH]c3c(-c4cc(C(F)F)ccc4OCC4CC4)ncnc23)C[C@H]1F (relative stereo) ? < 100 nM

I am curious: what IC50 value has been reported for CCc1ccc(OCC2CC2)c(-c2ncnc3c(C(=O)N[C@H]4CC[C@H](NC(=O)CO)CC4)c(C)[nH]c23)c1 ? < 100 nM

I am curious: what IC50 value has been reported for COc1ccc(OCC2CC2)c(-c2ncnc3c(C(=O)N[C@H]4CC[C@H](NC(C)=O)CC4)c(C)[nH]c23)c1 ? 100 to 1000 nM

I am curious: what IC50 value has been reported for CCC(=O)N1CCC(NC(=O)c2c(C)[nH]c3c(-c4cc(CC)ccc4OCC4CC4)ncnc23)CC1 ? 100 to 1000 nM

I am curious: what IC50 value has been reported for Cc1[nH]c2c(-c3cc(F)ccc3OCC3CC3)ncnc2c1C(=O)NC1CCN(C(=O)CO)CC1 ? 100 to 1000 nM

I am curious: what IC50 value has been reported for COc1ccc(OCC2CC2)c(-c2ncnc3c(C(=O)N[C@H]4CC[C@@H](NC(=O)[C@H](C)O)CC4)c(C)[nH]c23)c1 ? 100 to 1000 nM

I am curious: what IC50 value has been reported for COCC(=O)N1CCC(NC(=O)c2c(C)[nH]c3c(-c4cc(C)ccc4OCC4CC4)ncnc23)CC1 ? < 100 nM

I am curious: what IC50 value has been reported for COCC(=O)N[C@H]1CC[C@H](NC(=O)c2c(C)[nH]c3c(-c4cc(C)ccc4OCC4CC4)ncnc23)CC1 ? < 100 nM

I am curious: what IC50 value has been reported for CC(=O)N[C@H]1CC[C@H](NC(=O)c2c(C)[nH]c3c(-c4cc(C)ccc4OCC4CC4)ncnc23)CC1 ? < 100 nM

I am curious: what IC50 value has been reported for Cc1[nH]c2c(-c3cc(C(F)(F)F)ccc3OCC3CC3)ncnc2c1C(=O)N[C@H]1CC[C@H](NC(=O)[C@H](C)O)CC1 ? < 100 nM

I am curious: what IC50 value has been reported for CC(=O)N[C@H]1C[C@@H](F)[C@H](NC(=O)c2c(C)[nH]c3c(-c4cc(C(F)F)ccc4OCC4CC4)ncnc23)C1 (relative stereo) ? < 100 nM

I am curious: what IC50 value has been reported for Cc1ccc(OCC2CC2)c(-c2nc(C)nc3c(C(=O)NC4CCN(C(=O)CO)CC4)c(C)[nH]c23)c1 ? 100 to 1000 nM
